Field: FGFR2/FGFR4. Provide a value for each of the molecules that follow.
Target: FGFR4 (Homo sapiens (Human), UniProt P22455)
Sequence (P22455 22-802): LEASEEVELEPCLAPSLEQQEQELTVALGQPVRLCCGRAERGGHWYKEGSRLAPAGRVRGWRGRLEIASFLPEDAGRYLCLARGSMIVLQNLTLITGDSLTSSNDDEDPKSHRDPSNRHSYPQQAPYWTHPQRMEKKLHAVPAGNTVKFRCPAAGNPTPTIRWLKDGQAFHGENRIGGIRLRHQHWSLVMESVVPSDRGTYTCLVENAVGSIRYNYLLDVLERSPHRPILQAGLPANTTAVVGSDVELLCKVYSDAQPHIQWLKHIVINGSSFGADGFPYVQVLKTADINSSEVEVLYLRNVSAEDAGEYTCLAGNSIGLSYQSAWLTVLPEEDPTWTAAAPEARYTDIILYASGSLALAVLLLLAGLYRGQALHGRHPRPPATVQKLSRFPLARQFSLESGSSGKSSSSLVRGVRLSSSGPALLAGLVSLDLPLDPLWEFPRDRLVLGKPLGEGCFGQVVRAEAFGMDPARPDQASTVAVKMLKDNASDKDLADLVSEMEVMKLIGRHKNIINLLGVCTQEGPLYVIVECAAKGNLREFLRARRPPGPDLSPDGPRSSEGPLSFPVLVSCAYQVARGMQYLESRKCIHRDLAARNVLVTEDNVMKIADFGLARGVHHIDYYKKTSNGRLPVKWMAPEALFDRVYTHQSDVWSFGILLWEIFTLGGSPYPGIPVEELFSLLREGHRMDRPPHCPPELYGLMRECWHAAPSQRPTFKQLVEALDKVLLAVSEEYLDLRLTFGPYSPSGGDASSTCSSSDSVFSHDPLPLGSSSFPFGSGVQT
Assay: FGFR Enzymatic Assay (FRET peptide phosphorylation), FGFR4
Details: IC50 ratio showing FGFR4 selectivity; pre-incubated for 4 hours

Below, 3 molecules whose answers are already recorded.
{"columns": ["CHEM_SMILES", "FGFR2/FGFR4"],
 "data": [
  ["C=CC(=O)Nc1ccc(C#N)c(-c2cc3c(cn2)CN(c2c(F)c(OC)cc(OC)c2F)C(=O)C32CC2)c1", ">100"],
  ["C=CC(=O)Nc1cc(CN2CCOCC2)cc(-c2cc3c(cn2)CN(c2c(F)c(OC)cc(OC)c2F)C(=O)C32CC2)c1", ">100"],
  ["C=CC(=O)Nc1cnn(CCN2CCOCC2)c1-c1cc2c(cn1)CN(c1c(F)c(OC)cc(OC)c1F)C(=O)C21CC1", ">100"]
]}

As a next step, examine the molecule that follows.
## Task Short answer please: FGFR2/FGFR4, FGFR4 (Homo sapiens (Human), UniProt P22455), entry `C=CC(=O)Nc1cnn(Cc2ccnn2C)c1-c1cc2c(cn1)CN(c1c(F)c(OC)cc(OC)c1F)C(=O)C21CC1`
## Result >50
